EXPERIMENT_SUMMARY: Solubility in simulated gastric fluid after 2 hrs
Assay type: physicochemical
VALUE_KIND: solubility at 2 h (µg/mL)

[a] CCNCc1ccc(C(=O)Nc2cc(C)n(Cc3cc(Cl)ccc3OCC(C)C)n2)cc1.Cl
[b] Cc1cc(NC(=O)c2ccc(CN3CCCCC3)cc2)nn1Cc1cc(Cl)ccc1OCC(C)C.Cl
Q: // pick larger solubility at 2 h from pair: a vs b Answer format: the label of the selected item.
A: a
(a: 62 µg/mL, b: 30 µg/mL)

###

EXPERIMENT_SUMMARY: Solubility in simulated gastric fluid after 0.5 hrs
Assay type: physicochemical
VALUE_KIND: solubility at 0.5 h (µg/mL)
Number in µg/mL, nothing else.

In plain terms, `Cc1cc(NC(=O)c2ccccc2)nn1Cc1cc(Cl)ccc1OCc1ccccc1` has a documented solubility at 0.5 h of 2

###

EXPERIMENT_SUMMARY: Half life in rat at 1 mg/kg, iv
Format: ADME, organism-based
Design: dose 1 mg/kg, route intravenous
ASSAY_SETUP: in vivo
VALUE_KIND: half-life (h)

Illustrative cases are given below, each with its answer.
• CNCc1ccc(NC(=O)c2cc(C)n(Cc3cc(Cl)ccc3OCc3ccccc3)n2)cc1.Cl = 3
• CCNCc1ccc(C(=O)Nc2cc(C)n(Cc3cc(Cl)ccc3OCC(C)C)n2)cc1.Cl = 2.8

[a] Cc1cc(NC(=O)c2ccccc2)nn1Cc1cc(Cl)ccc1OCc1ccccc1
[b] Cc1cc(NC(=O)c2ccc(CN3CCCC3)cc2)nn1Cc1cc(Cl)ccc1OCC(C)C.Cl
Q: Pick one: a or b . Which one has the lower reported half-life? Answer format: the label of the selected item.
A: b
(b: 1.4 h, a: 2.5 h)

###

EXPERIMENT_SUMMARY: Solubility in fed state simulated intestinal fluid after 1 hr
Format: physicochemical
VALUE_KIND: solubility at 1 h (µg/mL)

[P] Cc1cc(C(=O)Nc2ccc(CN3CCCCC3)cc2)nn1Cc1cc(Cl)ccc1OCc1ccccc1.Cl
[Q] CNCc1ccc(NC(=O)c2cc(C)n(Cc3cc(Cl)ccc3OCc3ccccc3)n2)cc1.Cl
Q: // pick larger solubility at 1 h from pair: P vs Q Answer format: the label of the selected item.
A: Q
(Q: 185 µg/mL, P: 64 µg/mL)

[A] Cc1cc(C(=O)Nc2ccc(CN3CCCCC3)cc2)nn1Cc1cc(Cl)ccc1OCC(C)C.Cl
[B] CNCc1ccc(NC(=O)c2cc(C)n(Cc3cc(Cl)ccc3OCC(C)C)n2)cc1.Cl
Q: // pick larger solubility at 1 h from pair: A vs B Answer format: the label of the selected item.
A: B
(B: 589 µg/mL, A: 315 µg/mL)

###

EXPERIMENT_SUMMARY: Solubility in fed state simulated intestinal fluid after 0.5 hrs
Assay type: physicochemical
VALUE_KIND: solubility at 0.5 h (µg/mL)
Number in µg/mL, nothing else.

In plain terms, `Cc1cc(NC(=O)c2ccccc2)nn1Cc1cc(Cl)ccc1OCc1ccccc1` has a documented solubility at 0.5 h of 50

###

EXPERIMENT_SUMMARY: Solubility in fed state simulated intestinal fluid after 2 hrs
Format: physicochemical
VALUE_KIND: solubility at 2 h (µg/mL)

[1] CCNCc1ccc(C(=O)Nc2cc(C)n(Cc3cc(Cl)ccc3OCC(C)C)n2)cc1.Cl
[2] Cc1cc(NC(=O)c2ccc(CN3CCCC3)cc2)nn1Cc1cc(Cl)ccc1OCC(C)C.Cl
[3] Cc1cc(NC(=O)c2ccc(CN3CCCCC3)cc2)nn1Cc1cc(Cl)ccc1OCC(C)C.Cl
Q: Put the compounds in ascending order of solubility at 2 h. Your answer should be the labels, listed in the requested order.
A: 1, 3, 2
(1: 154 µg/mL, 3: 240 µg/mL, 2: 520 µg/mL)

###

EXPERIMENT_SUMMARY: Blood clearance in rat at 1 mg/kg, iv
Format: ADME, organism-based
Parameters: dose 1 mg/kg, route intravenous
VALUE_KIND: clearance (mL/min/kg)

Illustrative cases are given below, each with its answer.
• Cc1cc(NC(=O)c2ccc(CN3CCCC3)cc2)nn1Cc1cc(Cl)ccc1OCC(C)C.Cl = 46
• CNCc1ccc(NC(=O)c2cc(C)n(Cc3cc(Cl)ccc3OCc3ccccc3)n2)cc1.Cl = 46

[a] Cc1cc(NC(=O)c2ccccc2)nn1Cc1cc(Cl)ccc1OCc1ccccc1
[b] CCNCc1ccc(C(=O)Nc2cc(C)n(Cc3cc(Cl)ccc3OCC(C)C)n2)cc1.Cl
Q: // pick larger clearance from pair: a vs b Answer format: the label of the selected item.
A: a

###

EXPERIMENT_SUMMARY: Permeability across MDCK cells
Format: ADME, cell-based, Canis lupus familiaris
ASSAY_SETUP: dog, read-out: permeability
VALUE_KIND: Papp (×10⁻⁶ cm/s)

• Cc1cc(NC(=O)c2ccc(CN3CCCC3)cc2)nn1Cc1cc(Cl)ccc1OCC(C)C.Cl = 36

[a] CCNCc1ccc(C(=O)Nc2cc(C)n(Cc3cc(Cl)ccc3OCC(C)C)n2)cc1.Cl
[b] CNCc1ccc(NC(=O)c2cc(C)n(Cc3cc(Cl)ccc3OCc3ccccc3)n2)cc1.Cl
Q: Pick one: a or b . Which one has the lower reported Papp? Answer format: the label of the selected item.
A: b
(b: 31.8 ×10⁻⁶ cm/s, a: 52.1 ×10⁻⁶ cm/s)

###

EXPERIMENT_SUMMARY: Drug level in rat blood at 10 mg/kg, po after 1 hr
Type: ADME, organism-based
Design: dose 10 mg/kg, route oral
ASSAY_SETUP: read-out: Drug uptake
VALUE_KIND: concentration at 1 h (nM)
Number in nM, nothing else.

In plain terms, `CCNCc1ccc(C(=O)Nc2cc(C)n(Cc3cc(Cl)ccc3OCC(C)C)n2)cc1.Cl` has a documented concentration at 1 h of 107

###

TARGET: Prostaglandin E2 receptor EP1 subtype (Homo sapiens, UniProt P34995)
Sequence (P34995 whole entry): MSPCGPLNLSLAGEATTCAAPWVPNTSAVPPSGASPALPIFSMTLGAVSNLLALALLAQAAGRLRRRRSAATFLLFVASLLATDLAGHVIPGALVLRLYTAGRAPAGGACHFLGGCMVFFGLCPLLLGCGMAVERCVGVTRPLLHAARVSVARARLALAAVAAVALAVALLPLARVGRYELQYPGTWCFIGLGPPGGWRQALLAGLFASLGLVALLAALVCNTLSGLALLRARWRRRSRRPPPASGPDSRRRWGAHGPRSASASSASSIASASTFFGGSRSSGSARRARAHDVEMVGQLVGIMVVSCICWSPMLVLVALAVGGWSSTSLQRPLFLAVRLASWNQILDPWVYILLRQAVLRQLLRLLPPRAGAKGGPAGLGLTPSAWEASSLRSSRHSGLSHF
EXPERIMENT_SUMMARY: Displacement of [H3PGE2 from human EP1 receptor expressed in CHOK1 cells
VALUE_KIND: IC50 (nM)

Illustrative cases are given below, each with its answer.
• CCN1CCc2ccc(C(=O)Nc3cc(C)n(Cc4cc(Cl)ccc4OCC(C)C)n3)cc2CC1 = 50.1
• Cc1cc(NC(=O)c2ccc(C3CCCN3)cc2)nn1Cc1cc(Cl)ccc1OCC(C)C (centres undefined) = 100
• Cc1cc(NC(=O)c2ccc(CO)cc2)nn1Cc1cc(Cl)ccc1OCC(C)C = 12.6
• Cc1cc(NC(=O)c2ccc(CN(C)C)cc2)nn1Cc1cc(Cl)ccc1OCC(C)C = 100
• Cc1cc(NC(=O)c2cccc(CN3CCCC3)c2)nn1Cc1cc(Cl)ccc1OCC(C)C = 126

[a] CCNCc1ccc(NC(=O)c2cc(C)n(Cc3cc(Cl)ccc3OCC(C)C)n2)cc1.Cl
[b] Cc1cc(NC(=O)c2ccc(C(C)NCC(C)C)cc2)nn1Cc1cc(Cl)ccc1OCC(C)C (centres undefined)
Q: // pick larger IC50 from pair: a vs b Answer format: the label of the selected item.
A: b

###

TARGET: Prostaglandin E2 receptor EP1 subtype (Homo sapiens, UniProt P34995)
EXPERIMENT_SUMMARY: Antagonist activity of human PGE2 receptor expressed in CHOK1 cells assessed as inhibition of intracellular calcium mobilisation by FLIPR assay
VALUE_KIND: Ki (nM)

[a] CNCc1ccc(NC(=O)c2cc(C)n(Cc3cc(Cl)ccc3OCC(C)C)n2)cc1.Cl
[b] CCNCc1ccc(C(=O)Nc2cc(C)n(Cc3cc(Cl)ccc3OCC(C)C)n2)cc1.Cl
[c] CCN1CCc2ccc(C(=O)Nc3cc(C)n(Cc4cc(Cl)ccc4OCC(C)C)n3)cc2CC1
Q: Parameters: sort_by = Ki; order = desc; input = items above. Your answer should be the labels, listed in the requested order.
A: b, a, c

###

TARGET: Prostaglandin E2 receptor EP1 subtype (Homo sapiens, UniProt P34995)
EXPERIMENT_SUMMARY: Displacement of [H3PGE2 from human EP1 receptor expressed in CHOK1 cells
pIC50: −log10 of the molar value.
VALUE_KIND: pIC50

Illustrative cases are given below, each with its answer.
• Cc1cc(C(=O)Nc2ccc(CN3CCCCC3)cc2)nn1Cc1cc(Cl)ccc1OCC(C)C.Cl = 8.20
• Cc1cc(NC(=O)c2ccc(C(C)N3CCCC3)cc2)nn1Cc1cc(Cl)ccc1OCC(C)C (configuration not stated) = 7.30

[a] Cc1cc(NC(=O)c2ccc(CN3CCCCC3)cc2)nn1Cc1cc(Cl)ccc1OCC(C)C.Cl
[b] Cc1cc(NC(=O)c2ccc3c(c2)CCN(C(C)C)C3)nn1Cc1cc(Cl)ccc1OCC(C)C
Q: Pick one: a or b . Which one has the lower reported pIC50? Answer format: the label of the selected item.
A: b
(b: 7.00, a: 7.40)

[1] Cc1cc(C(=O)Nc2ccc(CN(C)C)cc2)nn1Cc1cc(Cl)ccc1OCC(C)C
[2] Cc1cc(NC(=O)c2ccc(CN3CCCC3)cc2)nn1Cc1cc(Cl)ccc1OCC(C)C.Cl
[3] Cc1cc(C(=O)Nc2ccc(CN(CCO)CCO)cc2)nn1Cc1cc(Cl)ccc1OCC(C)C
Q: Put the items in order so that reported pIC50 rises from first to last. Your answer should be the labels, listed in the requested order.
A: 2, 3, 1

[P] CCNCc1cccc(C(=O)Nc2cc(C)n(Cc3cc(Cl)ccc3OCC(C)C)n2)c1
[Q] Cc1cc(C(=O)Nc2ccc(CO)cc2)nn1Cc1cc(Cl)ccc1OCc1ccccc1
Q: // pick larger pIC50 from pair: P vs Q Answer format: the label of the selected item.
A: Q

[1] Cc1cc(C(=O)Nc2ccc(CO)cc2)nn1Cc1cc(Cl)ccc1OCC(C)C
[2] CNCc1ccc(NC(=O)c2cc(C)n(Cc3cc(Cl)ccc3OCC(C)C)n2)cc1.Cl
[3] Cc1cc(NC(=O)c2cccc(CN3CCCCC3)c2)nn1Cc1cc(Cl)ccc1OCC(C)C
[4] Cc1cc(NC(=O)c2ccc(CN3CCOCC3)cc2)nn1Cc1cc(Cl)ccc1OCC(C)C
Q: Highest pIC50 first, then in falling order down to the smallest. Your answer should be the labels, listed in the requested order.
A: 2, 1, 4, 3
(2: 8.10, 1: 7.50, 4: 7.30, 3: 6.30)

[A] Cc1cc(C(=O)Nc2ccc(CN3CCCCC3)cc2)nn1Cc1cc(Cl)ccc1OCc1ccccc1.Cl
[B] CCNCc1ccc(C(=O)Nc2cc(C)n(Cc3cc(Cl)ccc3OCC(C)C)n2)cc1.Cl
[C] Cc1cc(NC(=O)c2cccc(CN(C)C)c2)nn1Cc1cc(Cl)ccc1OCC(C)C
Q: Put the items in order so that reported pIC50 rises from first to last. Your answer should be the labels, listed in the requested order.
A: C, B, A

Origin of measurements: ChEMBL document CHEMBL1155060
